Biological target: Metabotropic glutamate receptor 5 (Homo sapiens)
Sequence (P41594 whole entry): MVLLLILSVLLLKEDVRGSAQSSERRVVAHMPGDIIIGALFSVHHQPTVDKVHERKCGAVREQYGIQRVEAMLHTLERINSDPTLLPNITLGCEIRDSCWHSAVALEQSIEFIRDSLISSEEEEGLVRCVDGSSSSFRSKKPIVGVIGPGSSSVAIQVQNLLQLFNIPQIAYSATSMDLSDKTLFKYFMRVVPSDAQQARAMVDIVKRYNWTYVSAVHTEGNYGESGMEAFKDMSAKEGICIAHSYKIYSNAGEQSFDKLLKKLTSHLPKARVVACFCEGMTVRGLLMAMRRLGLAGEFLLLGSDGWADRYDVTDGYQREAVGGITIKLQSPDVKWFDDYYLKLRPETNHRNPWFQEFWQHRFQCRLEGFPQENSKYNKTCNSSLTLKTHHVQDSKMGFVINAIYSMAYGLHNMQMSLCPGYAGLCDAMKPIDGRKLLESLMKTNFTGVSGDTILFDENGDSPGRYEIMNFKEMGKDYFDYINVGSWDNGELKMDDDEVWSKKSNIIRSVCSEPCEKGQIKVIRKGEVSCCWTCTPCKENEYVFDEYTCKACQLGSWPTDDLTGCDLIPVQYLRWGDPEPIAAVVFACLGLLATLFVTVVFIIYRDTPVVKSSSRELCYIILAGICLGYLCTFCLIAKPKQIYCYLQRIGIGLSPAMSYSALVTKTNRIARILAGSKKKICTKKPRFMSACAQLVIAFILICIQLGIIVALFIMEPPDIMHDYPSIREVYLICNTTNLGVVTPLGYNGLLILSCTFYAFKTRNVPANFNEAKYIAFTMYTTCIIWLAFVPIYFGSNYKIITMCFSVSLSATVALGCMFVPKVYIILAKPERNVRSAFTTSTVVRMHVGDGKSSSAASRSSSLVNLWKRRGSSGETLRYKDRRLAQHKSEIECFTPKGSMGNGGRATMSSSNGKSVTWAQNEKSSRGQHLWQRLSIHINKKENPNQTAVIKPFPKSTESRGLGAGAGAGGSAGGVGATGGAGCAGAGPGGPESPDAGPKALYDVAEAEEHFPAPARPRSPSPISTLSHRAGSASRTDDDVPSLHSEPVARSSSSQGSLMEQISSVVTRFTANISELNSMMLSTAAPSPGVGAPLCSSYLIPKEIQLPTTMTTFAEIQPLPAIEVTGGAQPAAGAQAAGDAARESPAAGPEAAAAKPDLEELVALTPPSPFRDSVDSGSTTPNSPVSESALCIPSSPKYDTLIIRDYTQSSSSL
Experiment: Negative allosteric modulation of human mGlu5 receptor assessed as inhibition of glutamate induced-calcium mobilization
Recorded log10 of IC50, one value per entry.
# values: log10(IC50), units µM

The following compounds have reported results that may help.
>>> print(df.to_string())
                                   compound  numeric_result
0       Cc1cc(OCC2COC2)cc(C(=O)Nc2ccccn2)n1           -0.41
1  Cc1cc(O[C@H]2CO[C@H](C)C2)cc(C(=O)Nc2nc(C(F)F)cs2)n1           -0.04
2        Cc1cc(OC2CCC2)cc(C(=O)Nc2ccccn2)n1           -1.37

Give the measured log10 of IC50 of `COCOc1cc(C)nc(C(=O)Nc2ccc(F)cn2)c1` .
-0.16

Try this compound too: `Cc1cc(O[C@@H]2CO[C@@H](C)C2)cc(C(=O)Nc2nc(C)cs2)n1`
-0.40

Note, next up: `CC(=O)N1CC(Oc2cc(C)nc(C(=O)Nc3nc(C)cs3)c2)C1`
-0.41

Same read-out for `Cc1cc(O[C@H]2CO[C@@H](C)C2)cc(C(=O)Nc2ccc(F)cn2)n1` ?
0.65

Another compound to check: `Cc1cc(O[C@H]2CO[C@@H](C)C2)cc(C(=O)Nc2nc(C)cs2)n1`
-0.16

Follow-up entry: `Cc1cc(O[C@H]2CO[C@H](C)C2)cc(C(=O)Nc2nc(C(F)(F)F)cs2)n1`
0.72

Then this compound: Cc1cc(OC2CCSC2)cc(C(=O)Nc2nc(C)cs2)n1 (stereo unspecified)
-1.11
